tested on: DU-145 prostate; experiment: NCI-60 one-dose screen, 48 h (100 = growth as untreated, 0 = no growth, -100 = all killed); conditions: 10 µM unless noted
Compounds without any hit were thinned out: in the full panel of roughly 83,000, 20% have a hit.
// assign 1 if growth falls strictly below 30%, else 0 (ties count as 0)

Below, 4 compounds whose answers are already recorded.
>>> class_label("CCN(CCO)CCCOc1ccc2c(Nc3cc(CC(=O)Nc4cccc(F)c4)[nH]n3)ncnc2c1")
0
>>> class_label("Cc1nn(-c2nc3ccccc3[nH]2)c2c1C(c1ccc(OCc3ccc(F)cc3)cc1)CC(=O)N2 (stereo not drawn)")
0
>>> class_label("O=C1NC(=O)/C(=C/c2ccc3nccc(-c4ccncc4)c3c2)S1")
1
>>> class_label("COc1ccc2c(CCCC(c3ccccc3)c3ccccc3)c3[n+](cc2c1OC)CCc1cc2c(cc1-3)OCO2")
1

*Q* Is 30% strictly greater than the compound's reported growth? compound: C/C(=C(/c1ccc(Cl)cc1)c1ccc(OCCN2CCCCC2)cc1)c1ccccc1
*A* 0

*Q* Is 30% strictly greater than the compound's reported growth? compound: CO[C@@H](C(=O)N1Cc2[nH]nc(NC(=O)c3ccc(N4CCN(C)CC4)cc3)c2C1)c1ccccc1
*A* 1

*Q* Is 30% strictly greater than the compound's reported growth? compound: Cc1nc(NC(=O)N2CCC[C@H]2C(N)=O)sc1-c1ccnc(C(C)(C)C(F)(F)F)c1
*A* 0

*Q* Is 30% strictly greater than the compound's reported growth? compound: CC[n+]1c(/C=C/C=C2\N(C)c3ccccc3C2(C)C)sc2ccccc21
*A* 1

*Q* Is 30% strictly greater than the compound's reported growth? compound: CC(=O)C1CC(C)CCC1C(C)C (stereo not drawn)
*A* 0

###

tested on: EKVX NSCLC; assay: NCI-60 one-dose screen, 48 h; settings: 10 µM unless noted
This is part of a sample that, as a whole, favours compounds with a hit. Of some 83,000 tested, about 20% had one in any assay. Calls of active or inactive are those of the source. The calls were made as follows: active = growth percent below 10; inactive = the rest.
Pick one and only one: label 1 for active, label 0 for inactive

Below, 5 compounds whose answers are already recorded.
>>> class_label("CCc1nc2cc(/C=C/C(=O)NO)c(F)cc2c(=O)n1CCc1ccccc1")
"label 0"
>>> class_label("Cn1cnc2c(F)c(Nc3ccc(Br)cc3F)c(C(=O)NOCCO)cc21")
"label 0"
>>> class_label("Nc1c(C(=O)c2ccccc2)sc2nc(-c3cccs3)ccc12")
"label 0"
>>> class_label("NC(=O)c1c(OCc2c(F)cc(Br)cc2F)nsc1NC(=O)NCCCCN1CCCC1")
"label 1"
>>> class_label("CCc1nc2cc(/C=C/C(=O)NO)ccc2c(=O)n1CCc1ccc(OC)cc1")
"label 0"

*Q* Test call for this compound, please: O=C(c1c(F)ccc(NS(=O)(=O)N2CC[C@@H](F)C2)c1F)c1c[nH]c2ncc(-c3cnc(C4CC4)nc3)cc12
*A* label 0

###

List of growth values.
tested on: UACC-62 melanoma; experiment: NCI-60 one-dose screen, 48 h (100 = growth as untreated, 0 = no growth, -100 = all killed); conditions: 10 µM unless noted
Compounds without any hit were thinned out: in the full panel of roughly 83,000, 20% have a hit.
Just the number please, in %, no unit attached.

Solved entries (count: 3):
>>> recorded_number("O=C1/C(=C\\c2cccc(OCCCCCOc3ccc(Cl)cc3)c2)N=C2SCCCN12")
56.6
>>> recorded_number("CCOC(=O)c1sc(NC(=O)COc2ccc(/C=C3\\Cc4ccc(Cl)cc4C3=O)cc2)nc1C")
93.4
>>> recorded_number("CCCCCCCC(=O)SCC/C=C/[C@@H]1CC(=O)NCc2nc(co2)C2=N[C@@](C)(CS2)C(=O)N[C@@H](C(C)C)C(=O)O1")
-68

*Q* Fill blank: measured growth of the molecule CN1CCN(CCOc2cc(OC3CCOCC3)c3c(Nc4c(Cl)ccc5c4OCO5)ncnc3c2)CC1 is ____.
*A* 99.6

*Q* Fill blank: measured growth of the molecule Cc1cc2c(F)c(Oc3ncnn4cc(OC[C@@H](C)OC(=O)[C@H](C)N)c(C)c34)ccc2[nH]1 is ____.
*A* 2.73

*Q* Fill blank: measured growth of the molecule Cc1ccc(-n2nc(C(C)(C)C)cc2NC(=O)NCc2cc(F)ccc2Oc2ccc3c(cnn3CCO)c2)cc1 is ____.
*A* 7.75

*Q* Fill blank: measured growth of the molecule C[N+](C)(CCOC(c1ccccc1)c1ccccc1)CC(=O)OCc1ccccc1 is ____.
*A* 104
